Where these numbers come from: ChEMBL document CHEMBL4689842

Test system: HEK-293T
Experiment: Multiplex assay against HEK293T
Type: toxicity, cell-based
Details: human, 48 h, 1 µM, compound concentration 1 uM, replicate 2
Hi there, I'd appreciate the recorded Population Hoechst High Intensity Objects (%) for every entry that follows.
One number for each entry, in %.

**Q:** What reported Population Hoechst High Intensity Objects (%) corresponds to COC(=O)C1=C(C)NC(C)=C(C(=O)OCCCN2CCC(c3ccccc3)(c3ccccc3)CC2)[C@H]1c1cccc([N+](=O)[O-])c1 [NIGULDIPINE] on HEK-293T?
**A:** 8

Value sought for every listed compound: Population Hoechst High Intensity Objects (%).
1. CCc1nn(CCCN2CCN(c3cccc(Cl)c3)CC2)c(=O)n1CCOc1ccccc1.Cl [NEFAZODONE HYDROCHLORIDE]
2. CC1=C(C(=O)Nc2cc3cn[nH]c3cc2F)C(c2ccc(C(F)(F)F)cc2)CC(=O)N1 (stereo unspecified)
3. CC(C)Oc1ccccc1C(=O)Nc1ccccc1C(=O)Nc1cccc(S(=O)(=O)C(F)(F)F)c1
4. O=c1cc(N2CCOCC2)oc2c(-c3cccc4c3sc3ccccc34)cccc12
5. Cc1c[nH]c2nccc(Oc3c(F)cc(Nc4cc(Cl)nc(N)n4)cc3F)c12 [BAY-549]

**A:**
[1, 2, 5, 3, 2]

====

Hi there, I'd appreciate the recorded Growth Rate for every entry that follows.
System: HEK-293T
Assay: Incucyte cell viability with HEK293T; also: filed as whole numbers so only -1 and 0 and 1 occur
Assay type: toxicity, cell-based
Conditions: human, 6 h, 10 µM, compound concentration 10 uM, replicate number 1, timepoint 6 hours
Answers are plain numbers.

Examples with their reported Growth Rate follow.
**Q:** Look at this molecule and give its reported Growth Rate. O=C(O)CC/C=C\C[C@@H]1CO[C@H](c2ccccc2Cl)O[C@@H]1c1ccccc1O
**A:** 1

**Q:** Same for C#Cc1cccc(Nc2ncnc3cc(OCCOC)c(OCCOC)cc23)c1
**A:** 0

**Q:** Same for Cc1cc([C@@H](C)Nc2ccccc2C(=O)O)c2nc(N3CCOCC3)cc(=O)n2c1
**A:** 0

**Q:** Same for CSc1cccnc1N1CCN(Cc2nc3ccccc3[nH]2)CC1
**A:** 0

**Q:** Same for CCCSc1nc(N[C@@H]2C[C@H]2c2ccc(F)c(F)c2)c2nnn([C@@H]3C[C@H](OCCO)[C@@H](O)[C@H]3O)c2n1
**A:** 0

Value sought for every listed molecule: Growth Rate.
1. Cc1c[nH]c2nccc(Oc3c(F)cc(Nc4cc(Cl)nc(N)n4)cc3F)c12
2. Cc1csc(NC(=O)c2cc(F)cc(Oc3cncnc3)c2)n1
3. O=C(O)Cn1c(C(=O)Nc2nc(-c3ccccc3Cl)cs2)cc2ccccc21
4. COc1cc(C(=O)NS(=O)(=O)c2ccccc2C)ccc1Cc1cn(C)c2ccc(NC(=O)OC3CCCC3)cc12

**A:**
0
1
1
1

====

Hi there, I'd appreciate the recorded Population Pyknosed Nuclei (%) for every entry that follows.
Test system: HEK-293T
Test: Multiplex assay against HEK293T
Format: toxicity, cell-based
Settings: human, 12 h, 1 µM, compound concentration 1 uM, replicate 2
Numbers only, in %.

Examples with their reported Population Pyknosed Nuclei (%) follow.
**Q:** Look at this molecule and give its reported Population Pyknosed Nuclei (%). CCCSc1nc(N[C@@H]2C[C@H]2c2ccc(F)c(F)c2)c2nnn([C@@H]3C[C@H](OCCO)[C@@H](O)[C@H]3O)c2n1 [TICAGRELOR]
**A:** 46

**Q:** Same for CC(C)Oc1ccccc1C(=O)Nc1ccccc1C(=O)Nc1cccc(S(=O)(=O)C(F)(F)F)c1
**A:** 55

**Q:** Same for C=CC(=O)Nc1cccc(Oc2nc(Nc3ccc(N4CCN(C)CC4)cc3OC)ncc2Cl)c1
**A:** 25

**Q:** Same for CC(C)CC(=O)Nc1[nH]nc2c1CN(C(=O)C1CCN(C)CC1)C2(C)C [PHA-793887]
**A:** 3

**Q:** Same for CC(C)c1noc(N2CCC(COc3ccc(-c4ccc(S(C)(=O)=O)cc4)nc3)CC2)n1 [GSK-1292263]
**A:** 46

**Q:** Same for O=c1[nH]c2ccccc2n1C1CCN(Cc2ccc(-c3[nH]c4cc5ncnc5cc4nc3-c3ccccc3)cc2)CC1
**A:** 5

Value sought for every listed molecule: Population Pyknosed Nuclei (%).
1. CNC(=O)Nc1ccc2c(c1)[C@@]1(CC2)OC(=O)N(CC(=O)N(Cc2ccc(F)cc2)[C@@H](C)C(F)(F)F)C1=O [A-486]
2. Cc1ccccc1C(c1ccccc1C)N1C2CCC1CC(O)(c1ccccc1)C2 (configuration not stated)
3. CC(C)NC(=O)N1CC[C@H](NC2=Nc3cc(F)ccc3N(CC(F)F)c3ccc(Cl)cc32)C1
4. Cc1ccc2c(c1)c1c(n2CCc2ccc(C)nc2)CCN(C)C1 [LATREPIRDINE]
5. COc1cc(Nc2nccc(-c3cnn4nc(OC)ccc34)n2)cc(C(F)(F)F)c1
6. Cc1c[nH]c2nccc(Oc3c(F)cc(Nc4cc(Cl)nc(N)n4)cc3F)c12 [BAY-549]
7. CNC(=O)Nc1ccc(-c2nc(N3CC4CCC(C3)O4)c3cnn(C4CCC5(CC4)OCCO5)c3n2)cc1
8. COC(=O)C1=C(C)NC(C)=C(C(=O)OCCCN2CCC(c3ccccc3)(c3ccccc3)CC2)[C@H]1c1cccc([N+](=O)[O-])c1 [NIGULDIPINE]

**A:**
13
55
47
54
48
37
64
62

Value sought for every listed molecule: Population Pyknosed Nuclei (%).
1. Cc1nc(N2CC[C@H](O)C2)ncc1-c1cc(C(F)(F)F)cc2[nH]ncc12
2. O=C(c1cc2c(cc1F)OC(c1ccc(F)cc1)(c1ccc(Cl)cc1Cl)O2)N1CCOCC1 (configuration not stated)
3. Cc1ccc(C)c(Oc2ccncc2C(=O)N2CCN(C3CC3)c3ccccc32)c1

**A:**
1: 4; 2: 59; 3: 54
